- Test system: Phakopsora pachyrhizi
- method_notes: Test A: preventive spray on soybean seedlings, Asian soybean rust, visual disease rating
- Type: in vivo
- condition_label: Phakopsora pachyrhizi, 250 ppm, 100 = 100% disease control, 0 = no control
result_type: pest or weed control at 250 ppm (%)
A number alone suffices; assume %.

Here's what some known entries look like.
Cn1ncc(OS(C)(=O)=O)c(C(=O)Nc2ccc(C#N)cc2)c1=O
99
Cn1ncc(O)c(C(=O)Nc2ccc(C(F)(F)F)cc2F)c1=O
0
Cn1ncc(Cl)c(C(=O)Nc2ccc(OC(F)(F)F)cc2)c1=O
87

Request: State its pest or weed control at 250 ppm for this molecule: "Cn1ncc(OS(C)(=O)=O)c(C(=O)Nc2ccc(S(F)(F)(F)(F)F)cc2)c1=O"
Result: 99

Request: State its pest or weed control at 250 ppm for this molecule: "Cn1ncc(O)c(C(=O)Nc2ccc(OC(F)F)cc2)c1=O"
Result: 38

Request: State its pest or weed control at 250 ppm for this molecule: "Cn1ncc(OS(C)(=O)=O)c(C(=O)Nc2ccc(OC(F)F)cc2)c1=O"
Result: 95

Request: State its pest or weed control at 250 ppm for this molecule: "Cn1ncc(Br)c(C(=O)Nc2ccc(OC(F)(F)F)cc2)c1=O"
Result: 79

Request: State its pest or weed control at 250 ppm for this molecule: "Cn1ncc(OS(C)(=O)=O)c(C(=O)Nc2ccc(C(F)(F)F)cc2)c1=O"
Result: 98

Request: State its pest or weed control at 250 ppm for this molecule: "Cn1ncc(O)c(C(=O)Nc2ccc(S(F)(F)(F)(F)F)cc2)c1=O"
Result: 46

---

- Tested on: Zymoseptoria tritici
- method_notes: Test E: preventive spray on wheat seedlings, wheat leaf blotch, visual disease rating
- Format: in vivo
- condition_label: Zymoseptoria tritici, 250 ppm, 100 = 100% disease control, 0 = no control
- From the text: General protocol for preparing test solutions for Tests AG: the test compounds were first dissolved in acetone in an amount equal to 3% of the final volume and then suspended at the desired concentration (in ppm) in acetone and purified water (50/50 mix by volume) containing the surfactant PEG400 (polyhydric alcohol esters). The resulting test suspensions were then used in Tests AG. […]
Reported values of pest or weed control at 250 ppm for individual entries
A number alone suffices; assume %.

Here's what some known entries look like.
Cn1ncc(OS(C)(=O)=O)c(C(=O)Nc2ccc(C#N)cc2)c1=O
95
Cn1ncc(O)c(C(=O)Nc2ccc(OC(F)F)cc2)c1=O
77

Request: State its pest or weed control at 250 ppm for this compound: "Cn1ncc(Cl)c(C(=O)Nc2ccc(OC(F)(F)F)cc2)c1=O"
Result: 97

---

- Tested on: Phytophthora infestans
- method_notes: whole plant or invertebrate
- Assay type: in vivo
- condition_label: 250 ppm; tomato seedlings; 100 = 100% disease control, 0 = no control
result_type: Test D disease control rating (%)
A number alone suffices; assume %.

Here's what some known entries look like.
COc1ccc(Cn2ncc(O)c(C(=O)Nc3ccc(OC(F)(F)F)cc3)c2=O)cc1
0
Cn1ncc(S(C)(=O)=O)c(C(=O)Nc2ccc(OC(F)(F)F)cc2)c1=O
9

Request: State recorded Test D disease control rating with Phytophthora infestans, entry "CN(C)c1cnn(C)c(=O)c1C(=O)Nc1ccc(C(F)(F)F)cc1F" , no comment.
Result: 67

---

- Test system: Phytophthora infestans
- method_notes: whole plant or invertebrate
- Type: in vivo
- condition_label: 250 ppm; tomato seedlings; 100 = 100% disease control, 0 = no control
result_type: Test D disease control rating (%)
A number alone suffices; assume %.

Cn1ncc(O)c(C(=O)Nc2cccc(-c3ccc(Cl)cc3)c2)c1=O
0
Cc1nnc(NC(=O)c2c(O)cnn(C)c2=O)s1
0
O=C(Nc1ccc(OC(F)(F)F)cc1)c1c(O)cnn(CC(F)(F)F)c1=O
87

Request: State recorded Test D disease control rating with Phytophthora infestans, entry "Cn1ncc(O)c(C(=O)Nc2cnc(Cl)cn2)c1=O" , no comment.
Result: 80

Request: State recorded Test D disease control rating with Phytophthora infestans, entry "Cn1ncc(O)c(C(=O)Nc2cccc(C(F)(F)F)c2)c1=O" , no comment.
Result: 61

Request: State recorded Test D disease control rating with Phytophthora infestans, entry "Cn1ncc(O)c(C(=O)Nc2ccc(OC(F)(F)F)cc2F)c1=O" , no comment.
Result: 97

Request: State recorded Test D disease control rating with Phytophthora infestans, entry "Cn1ncc(OS(C)(=O)=O)c(C(=O)Nc2ccc(Oc3ccccc3)cc2)c1=O" , no comment.
Result: 85

Request: State recorded Test D disease control rating with Phytophthora infestans, entry "Cn1ncc(O)c(C(=O)NC2CCCCC2)c1=O" , no comment.
Result: 0

Just for reference, patent US20190133128A1 is where these values come from.
